system_name: pooled human IgG
Measured Enzyme Activity Endpoint Assay: scIgG by item
Give your result in ng/µL as a bare value.

>>> measurement("PRT-560 (protein) MANQEIRYSEETPKTITSVWTKGVTPPTDFIYNEDVLHAPYIANQGWYDITKTFNGKDDLLCGAATAGNMLHWWFDQNKEQIERYLKKHPEKQKINFNGEQMFDVKEAIDTKDSQTDSALFEYFKDKAFPYLSTKHLGVFPDHVIDMFINGYRLSLTNHGPTPVKRQTKDPRGGIFDAVFTRGDQSKLLTSRHDFKEKTLKEISDLIKQELTEGKALGLSHTYANVRINHVINLWGADFDAEGNLEAIYVTDSDSNASIGMKKYYVGVNSAGKVAISAKEIEGDNIGAQVLGLFTLSTGQDIWEQTNLEHHHHHH")
312

// switching to the query protein
Fill in the blank: the reported Enzyme Activity Endpoint Assay: scIgG of PRT-29 (protein) MANQEIRYSEVTPYHVTSVWTKGVTPPANFTQGEDVFHAPYVANQGWYDITKTFNGKDDLLCGAATAGNMLHWWFDQNKDQIKRYLEEHPEKQKINFNGEQMFDVKEAIDTKNHQLDSKLFEYFKEKAFPYLSTKHLGVFPDHVIDMFINGYRLSLTNHGPTPVKEGSKDPRGGIFDAVFTRGDQSKLLTSRHDFKEKNLKEISDLIKQELTEGKALGLSHTYANVRINHVINLWGADFDSNGNLEAIYVTDSDSNASIGMKKYFVGVNSAGKVAISAKEIEEDNIGAQVLGLFTLSTGQDSWNQTN is ____.
43
